B1: Far upstream element-binding protein 2, residues 142 to 214; numbered along this chain, Q92945 (parent)
chain: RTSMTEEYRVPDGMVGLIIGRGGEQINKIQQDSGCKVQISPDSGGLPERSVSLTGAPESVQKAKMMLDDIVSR

variants of: B1; assay: abundance fitness (aPCA) (normalised: wild type 0, dead -1); higher = more abundant; growth selection in yeast, the domain comes from the species named; conditions: Homo sapiens

{"variant-string": "G23P", "abundance fitness": -0.314}
{"variant-string": "G55Y", "abundance fitness": -0.878}
{"variant-string": "S72P", "abundance fitness": -0.282}
{"variant-string": "V51A", "abundance fitness": -0.503}
{"variant-string": "L67H", "abundance fitness": -0.564}
{"variant-string": "K62C", "abundance fitness": -0.288}
{"variant-string": "V60D", "abundance fitness": -0.789}
{"variant-string": "R21S", "abundance fitness": 0.02}
{"variant-string": "T54S", "abundance fitness": -0.059}
{"variant-string": "Q30W", "abundance fitness": -0.507}
{"variant-string": "K36T", "abundance fitness": 0.005}
{"variant-string": "V71Q", "abundance fitness": -0.296}
{"variant-string": "K64Y", "abundance fitness": -0.926}
{"variant-string": "K62T", "abundance fitness": -0.204}
{"variant-string": "R49W", "abundance fitness": -0.202}
{"variant-string": "Q61P", "abundance fitness": -0.618}
{"variant-string": "K64W", "abundance fitness": -0.662}
{"variant-string": "V37T", "abundance fitness": -0.484}
{"variant-string": "E24G", "abundance fitness": -0.215}
{"variant-string": "Q38I", "abundance fitness": -0.038}
{"variant-string": "A63C", "abundance fitness": -0.222}
{"variant-string": "K36F", "abundance fitness": -0.32}
{"variant-string": "G20V", "abundance fitness": -1.38}
{"variant-string": "N27R", "abundance fitness": 0.017}
{"variant-string": "Q31V", "abundance fitness": -0.207}
{"variant-string": "S59R", "abundance fitness": -0.373}
{"variant-string": "E58R", "abundance fitness": -0.198}
{"variant-string": "S43T", "abundance fitness": -0.012}
{"variant-string": "P41M", "abundance fitness": -0.09}
{"variant-string": "K28F", "abundance fitness": -0.4}
{"variant-string": "D42N", "abundance fitness": -0.069}
{"variant-string": "I70G", "abundance fitness": -0.497}
{"variant-string": "G34V", "abundance fitness": -0.96}
{"variant-string": "S72W", "abundance fitness": -0.191}
{"variant-string": "A63R", "abundance fitness": -0.865}
{"variant-string": "V60C", "abundance fitness": -0.355}
{"variant-string": "Q38H", "abundance fitness": 0.095}
